# target: Ataxin-2 (Homo sapiens) (UniProt Q99700)
# Sequence (Q99700 whole entry): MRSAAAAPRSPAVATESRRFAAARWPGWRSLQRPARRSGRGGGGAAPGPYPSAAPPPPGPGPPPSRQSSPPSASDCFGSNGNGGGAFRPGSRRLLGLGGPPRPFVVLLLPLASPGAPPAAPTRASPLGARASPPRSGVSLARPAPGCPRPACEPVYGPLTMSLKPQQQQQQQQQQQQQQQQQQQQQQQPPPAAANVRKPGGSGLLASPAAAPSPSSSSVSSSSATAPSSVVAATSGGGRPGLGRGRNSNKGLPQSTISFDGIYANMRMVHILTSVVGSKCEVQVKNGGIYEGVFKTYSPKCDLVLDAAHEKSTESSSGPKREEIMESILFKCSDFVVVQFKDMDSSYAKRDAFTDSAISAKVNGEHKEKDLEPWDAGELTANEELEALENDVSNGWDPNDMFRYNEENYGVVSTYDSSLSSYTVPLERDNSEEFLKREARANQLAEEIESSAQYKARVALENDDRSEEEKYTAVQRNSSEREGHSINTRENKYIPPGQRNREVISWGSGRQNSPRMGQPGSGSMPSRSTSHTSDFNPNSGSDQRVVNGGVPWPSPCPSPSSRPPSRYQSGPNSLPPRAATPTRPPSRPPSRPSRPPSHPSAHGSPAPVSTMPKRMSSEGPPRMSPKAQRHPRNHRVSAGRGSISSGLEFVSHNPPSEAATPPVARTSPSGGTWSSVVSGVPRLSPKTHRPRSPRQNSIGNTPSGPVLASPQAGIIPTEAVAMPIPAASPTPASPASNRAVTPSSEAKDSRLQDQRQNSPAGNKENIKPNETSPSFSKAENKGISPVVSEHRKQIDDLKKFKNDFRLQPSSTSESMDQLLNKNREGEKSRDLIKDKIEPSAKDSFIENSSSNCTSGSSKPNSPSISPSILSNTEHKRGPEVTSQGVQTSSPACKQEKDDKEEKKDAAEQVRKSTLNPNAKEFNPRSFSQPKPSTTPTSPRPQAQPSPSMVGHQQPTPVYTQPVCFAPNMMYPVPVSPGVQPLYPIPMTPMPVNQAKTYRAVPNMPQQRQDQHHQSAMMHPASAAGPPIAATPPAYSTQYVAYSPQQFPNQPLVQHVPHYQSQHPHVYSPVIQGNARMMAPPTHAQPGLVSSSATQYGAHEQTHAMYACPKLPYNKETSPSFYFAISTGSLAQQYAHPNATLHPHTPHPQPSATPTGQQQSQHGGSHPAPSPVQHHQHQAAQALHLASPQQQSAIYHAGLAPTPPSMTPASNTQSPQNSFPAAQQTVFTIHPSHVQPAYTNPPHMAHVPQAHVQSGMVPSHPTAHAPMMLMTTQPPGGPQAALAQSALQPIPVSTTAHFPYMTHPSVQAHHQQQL
# experimentalDetails: qHTS for Inhibitors of ATXN expression.
# Type: functional
About 2,100 (0.53%) of roughly 400,000 compounds were called active. Not shown: some 14% with an inconclusive outcome. The rule behind the calls is not given here. The list comes from a sample in which actives are over-represented; it also holds close analogues and randomly drawn compounds.
Outcomes you can answer with include only these: active, inactive

Worked cases, answers included:
compound	target	labelValue
Cc1cc(C(=O)CCl)c(C)n1-c1cccc(S(=O)(=O)N2CCOCC2)c1	Ataxin-2 (Homo sapiens) (UniProt Q99700)	active
COc1ccc(-c2nc(CSCC(=O)N3CCN(c4ccccc4F)CC3)c(C)o2)cc1	Ataxin-2 (Homo sapiens) (UniProt Q99700)	active
O=C(COC(=O)COc1cccc(C(F)(F)F)c1)Nc1ccc(N2CCOCC2)cc1	Ataxin-2 (Homo sapiens) (UniProt Q99700)	inactive
Cc1ccnc(NC(=O)c2ccccc2NC(=O)c2ccc(Cl)cc2Cl)c1	Ataxin-2 (Homo sapiens) (UniProt Q99700)	inactive
Cc1ccnc(NC(=O)c2cc3c(=O)oc4ccc(C)cc4c3s2)c1	Ataxin-2 (Homo sapiens) (UniProt Q99700)	active
Fc1ccc(Br)cc1C1C=C(c2ccc(Br)cc2)Nc2ncnn21 (stereo not given)	Ataxin-2 (Homo sapiens) (UniProt Q99700)	inactive

Ask: What outcome does the record of this test show for COc1ccc(N2CCN(C(=O)COC(=O)CCc3ccccc3)CC2)cc1 ?
Reply: inactive

Ask: Tell me the assay call for CCCC[n+]1c2ccccc2cc2ccccc21 please.
Reply: inactive

Ask: Assay outcome for Cc1ccc(S(=O)(=O)N2CCOCC2)cc1C(=O)N1C(=O)c2cccc(N)c2C1=O : what was it?
Reply: inactive

Ask: Per the records of this test, what outcome belongs to COc1ccc(-c2nc(CSCC(=O)N3CCN(c4cccc(C)c4)C(C)C3)c(C)o2)cc1OC (stereo not given) ?
Reply: active

* * *

# target: Ataxin-2 (Homo sapiens) (UniProt Q99700)
# experimentalDetails: qHTS for Inhibitors of ATXN expression.
# Type: functional
Screen size: about 400,000 compounds; about 2,100 (0.53%) were called active. Roughly 14% stayed inconclusive and do not appear here. The full list was thinned out, with actives kept by preference.
readoutLabel: Potency

compound	Potency
Cc1cc(C)c(C(=O)COC(=O)C2CCN(c3ccc(C(F)(F)F)cn3)CC2)c(C)c1	inactive
CN(C)c1ccc(/C=N/NC(=O)c2cccc(N3CCCC3=O)c2)cc1	inactive
CCOC(=O)C1(C)C(=O)CC2c3nc4ccccc4cc3CN2C1=O (configuration not stated)	inactive
Cn1ccnc1C(=O)C1CCCN(Cc2c[nH]nc2-c2ccc(-c3ccccc3)cc2)C1 (configuration not stated)	inactive

Ask: Look up Potency: CCC(c1nnnn1Cc1ccco1)N(CCc1ccccc1)Cc1cc2cc(C)ccc2nc1O (configuration not stated)
Reply: 39.8 µM (active)

Ask: So what does the record say about Potency for Cc1cc(NC(=O)CSc2cn(C)c3ccccc23)no1 ?
Reply: inactive

Ask: Using the record for OCCNc1nc(-c2ccccc2)c2cc(Cl)ccc2n1 , report its Potency.
Reply: inactive

* * *

# target: Ataxin-2 (Homo sapiens) (UniProt Q99700)
# experimentalDetails: qHTS for Inhibitors of ATXN expression.
# Format: functional
The campaign covered roughly 400,000 compounds. About 2,100 (0.53%) were called active. Not shown: some 14% with an inconclusive outcome. No rule for the calls is given here. The sample as a whole holds a higher share of actives than the screen did.
Field 'call' accepts active, inactive

compound	labelValue
O=C(OC12CC3CC(CC(C3)C1)C2)c1ccc(NCc2cc(O)ccc2O)cc1	active
COc1cc(OC)c(NC(C)C(=O)NCc2ccccc2)cc1Cl (configuration not stated)	inactive
CCN(Cc1ccccc1)C(=O)CSc1ccccc1C(=O)O	inactive

Ask: Tell me the recorded outcome of this test for COc1cc(/C=C(\C#N)c2nc3ccccc3n2C)cc(OC)c1O .
Reply: inactive

Ask: What did the test return for COc1ccc(-c2[nH]c(-c3ccc4c(c3)OCO4)nc2-c2ccccc2)cc1 ?
Reply: active

Ask: Which outcome was entered for the compound CCC(C(=O)Nc1cc(OC)cc(OC)c1)n1nc(-c2ccc(C)c(C)c2)ccc1=O (configuration not stated) in this test?
Reply: active

Ask: Please state the recorded outcome for this compound: CN(C)/C=N/c1nc2nccc(-c3ccccn3)n2n1
Reply: inactive

Ask: What call does the record list for CS(=O)(=O)Nc1nc2n(n1)C(c1ccccc1)C=C(c1ccc(Br)cc1)N2 (configuration not stated) ?
Reply: inactive

Ask: Call for entry Cn1c2ccccc2c(=O)c2cc(NCCCN3CCOCC3)ccc21 :
Reply: inactive
